- measurement notes: label from the status in PepcDB records
measure name: protein production

sequence input: GLPVAQSTTTLIDALRTHRMAVVQAPPGTGKTTLVPPIAHNVTGGRVIVVAPRRVAVRAAAHHLVQLDQSSCDQPSTHRVGYTIRGERSRGDLVEFVTPGVLLRRLISNPELDGVSAVVVDEVHERQLDTDLVLGMLVELRELRDDLTVIAMSAT
measure name: protein production
test value: failed
//
sequence input: IDFRPYGGFIFDMDGTLIDTMPAHLAAWQATADRFDFPFCQEWLHSLGGMPSFKIVAELNRHYGLSLDPQTVSKFKMETFAAMELQGDVIQCTGIVLEEYLGQKKIAVGTGSQRESAMRLLSHAGLIDRLDAVVTASDVENHKPCPDTFLLAADRLGIDAQNCLVFEDTELGKRAAHSAGMDCVMVEGNNLV
measure name: protein production
test value: failed

* * *

- measurement notes: label from the status in PepcDB records
measure name: protein production

sequence input: MSDEQHDSVWPPPGLDFSKPTIARVYDALLGGKDNFEADRALADYACKHIPGLKESAIENRKVLVRGVRFLAGEAGISQFLDLGSGLPTVQNTHEVAQSVNPDARVVYVDIDPMVLTHGRALLAKDPNTAVFTADVRDPEYILNHPDVRRMIDFSRPAAIMLVGMLHYLSPDVVDRVVGAYRDALAPGSYLFMTSLVDTGLPAQQKLARITRENLGEGWARTPEEIERQFGDFELVEPGVVYTALWRPDEPVDPDNLSPGEQLGMAGIGRKKA
test value: not failed
--
sequence input: MDSLMTLLSVLIPMFAGFFIRVPKPYLPALDKVLSVLVYAVLLLIGVSLSRVEDLGSRLDDMALTVLWLFVCTVGANLLALAVLGKLFP
test value: failed
--
sequence input: SKIIDIKTSIIKIPLKRTFITAVRSTNHIDSLAVELTLDNGVKGYGVAPATTAITGDTLQGMQYIIREIFAPVILGSDLSDYKQTLELAFKKVMFNSAAKMAIDLAYHDLLAKEQDISVAKLLGAKANSIVTDVSISCGNVAETIQNIQNGVEANFTAIKVKTGADFNRDIQLLKALDNEFSKNIKFRFDANQGWNLAQTKQFIEEINKYSLNVEIIEQPVKYYDIKAMAEITKFSNIPVVADESVFDAKDAERVIDEQACNMINIKLAKTGGILEAQKIKKLADSAGISCMVGCMMESPAGILATASFALAEDITVADLDPLDWVAKDLYSDYITFNEPNIILKDNLKGFGFNL
test value: not failed
--
sequence input: MRKLTFLLTFFMLLGSVQLQAKEYAIKDIPMVHLQNRTRYVSNPDGILSSTAVTTMDSILYALEQKTGIQTLVVAVTGIEGGDCFDFAHRLGQETGVGQKERDNGLVILLSTDERCVQFATGYGLEGILPDAICKRIQNRYMLPYFKDNNWNAGMVAGIRAVNGYLDGSMENIGNDESEDDPLEFIIIFFVIFGGFIGIGLYANWRKTRCPHCKKHKLQRLSSKVIDRSNGTKTEEVVYKCRNCGHILRRKERSRDENYKGPRGGGPFIGGMGGGFFGGHGGSGGGFSGGSFGGGSFGGGGAGSRF
test value: failed

Provide reported protein production for each item, in the same order as listed.
1. QLLEPIRDFEARKCPVHGKTMELFCQTDQTCICYLCMFQEHKNHSTVTVEEAKAEKETE
2. MRLTSKGRYAVTAMLDVALNSEAGPVPLADISERQGISLSYLEQLFSRLRKNGLVSSVRGPGGGYLLGKDASSIAVGEVISAVDESVDATRCQGKGGCQGGDKCLTHALWRDLSDRLTGFLNNITLGELVNNQEVLDVSGRQHTLEHHHHHH
3. MRCRVYYEDTDSEGVVYHANYLKYCERARSEFFFKQNVLPENEEGVFVIRSIKADFFTPASLGQVLEIRTQIKELRKVFVVLFQEIYCIQNASLEPMKPFKVFASEIKFGFVNRSTYSPIAIPKLFKELLNAI

1: not failed; 2: not failed; 3: failed

Quick one: protein production of `MDRRIAMSLQVLGAGLGRTGTLSLKFALEHLGFGPCYHATEVAANMRTALPLWNAAERGAADWSAIFAGYRSSTDHPGCYYWRQLIEVYPQAKVVLTVRDPDSWFESVTQTILMPGRKSTFVGPEGETFSTFLKQQMGGRSQDRAFMVDYFNRWNQAVIDAVPSDRLLVFSSRQGWAPLCGFLSVPVPHKPYPHLHARPRLRWFTRGLRLPDDVAARERHVREYLQYLREDLFGLEHHHHHH` ?
not failed
